ASSAYED TARGET: human RXFP1 (Homo sapiens, UniProt Q9HBX9)
Construct: expressed in transfected cells
Sequence (Q9HBX9 1-757): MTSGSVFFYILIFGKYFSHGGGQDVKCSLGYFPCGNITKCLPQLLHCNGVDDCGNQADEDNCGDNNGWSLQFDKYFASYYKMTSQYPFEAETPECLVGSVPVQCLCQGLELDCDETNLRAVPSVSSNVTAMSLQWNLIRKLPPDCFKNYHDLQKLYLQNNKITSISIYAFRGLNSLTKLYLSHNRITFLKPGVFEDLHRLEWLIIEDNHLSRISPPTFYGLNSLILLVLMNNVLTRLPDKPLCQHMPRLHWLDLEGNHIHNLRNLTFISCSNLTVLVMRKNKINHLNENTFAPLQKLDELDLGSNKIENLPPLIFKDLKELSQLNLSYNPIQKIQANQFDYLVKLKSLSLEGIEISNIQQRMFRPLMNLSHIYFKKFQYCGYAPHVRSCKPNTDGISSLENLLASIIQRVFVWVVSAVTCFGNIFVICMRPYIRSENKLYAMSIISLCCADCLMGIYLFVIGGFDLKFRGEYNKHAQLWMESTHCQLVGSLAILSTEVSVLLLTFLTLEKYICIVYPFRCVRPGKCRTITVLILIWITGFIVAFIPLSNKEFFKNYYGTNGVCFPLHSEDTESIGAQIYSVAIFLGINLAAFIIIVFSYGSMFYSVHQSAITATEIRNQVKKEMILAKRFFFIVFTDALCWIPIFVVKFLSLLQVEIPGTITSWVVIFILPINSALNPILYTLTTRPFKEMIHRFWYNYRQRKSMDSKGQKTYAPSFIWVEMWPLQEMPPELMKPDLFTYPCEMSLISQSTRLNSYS
TEST NAME: RXFP1 cAMP assay (hRXFP1 HEK293 cAMP assay, HTRF)
Type: cell-based
CONDITION CONTEXT: HEK293 cells stably expressing human RXFP1, 30 min at room temperature, read-out: cAMP hRXFP1 HEK293 Assay EC50
MEASURE: EC50
Provide a numeric answer, followed by its unit.

-- ask What EC50 appears in the records for this compound with human RXFP1 (Homo sapiens, UniProt Q9HBX9)? COc1ccc(-c2cc([C@H](OC(=O)NC3CCC3)C(=O)O)ccc2F)cc1C(=O)N[C@H]1[C@@H](C(=O)Nc2ccc(F)c(C(F)(F)F)c2)[C@H]2CC[C@@H]1/C2=C\CC(C)C
-- reply 5.8 nM

-- ask Lab request: please report EC50 under test system human RXFP1 (Homo sapiens, UniProt Q9HBX9) for COc1ccc(C2=NO[C@@H]3CC[C@H](O)[C@H]23)cc1C(=O)N[C@H]1[C@@H](C(=O)Nc2ccc(F)c(C(F)(F)F)c2)[C@H]2CC[C@@H]1/C2=C\C1CC1 (single isomer, unassigned)
-- reply 7.4 nM

-- ask Could you share what EC50 was measured for COc1ccc(C2CCCN2C(=O)C(C)(C)O)cc1C(=O)N[C@@H]1C2CCC(C2=CC2CC2)[C@@H]1C(=O)Nc1ccc(F)c(C(F)(F)F)c1 (some centres unmarked) [compound 671] , tested on human RXFP1 (Homo sapiens, UniProt Q9HBX9)?
-- reply 451 nM

-- ask What reported EC50 corresponds to COc1ccc(C2=NO[C@H]3C[C@H](CO)C[C@@H]23)cc1C(=O)N[C@H]1[C@@H](C(=O)Nc2ccc(F)c(C(F)(F)F)c2)[C@H]2CC[C@@H]1/C2=C\CC(O)C(F)(F)F (some centres unmarked) [compound 820] on human RXFP1 (Homo sapiens, UniProt Q9HBX9)?
-- reply 2.4 nM

-- ask Recorded EC50 for COc1ccc(C2=NO[C@H]3C[C@H](CO)C[C@@H]23)cc1C(=O)N[C@H]1[C@@H](C(=O)N[C@H](C)C2(C)CC2)[C@H]2CC[C@@H]1/C2=C\CC(O)C(F)(F)F (some centres unmarked) with human RXFP1 (Homo sapiens, UniProt Q9HBX9), please?
-- reply 1.5 nM

###

ASSAYED TARGET: human RXFP1 (Homo sapiens, UniProt Q9HBX9)
Construct: expressed in transfected cells
Sequence (Q9HBX9 1-757): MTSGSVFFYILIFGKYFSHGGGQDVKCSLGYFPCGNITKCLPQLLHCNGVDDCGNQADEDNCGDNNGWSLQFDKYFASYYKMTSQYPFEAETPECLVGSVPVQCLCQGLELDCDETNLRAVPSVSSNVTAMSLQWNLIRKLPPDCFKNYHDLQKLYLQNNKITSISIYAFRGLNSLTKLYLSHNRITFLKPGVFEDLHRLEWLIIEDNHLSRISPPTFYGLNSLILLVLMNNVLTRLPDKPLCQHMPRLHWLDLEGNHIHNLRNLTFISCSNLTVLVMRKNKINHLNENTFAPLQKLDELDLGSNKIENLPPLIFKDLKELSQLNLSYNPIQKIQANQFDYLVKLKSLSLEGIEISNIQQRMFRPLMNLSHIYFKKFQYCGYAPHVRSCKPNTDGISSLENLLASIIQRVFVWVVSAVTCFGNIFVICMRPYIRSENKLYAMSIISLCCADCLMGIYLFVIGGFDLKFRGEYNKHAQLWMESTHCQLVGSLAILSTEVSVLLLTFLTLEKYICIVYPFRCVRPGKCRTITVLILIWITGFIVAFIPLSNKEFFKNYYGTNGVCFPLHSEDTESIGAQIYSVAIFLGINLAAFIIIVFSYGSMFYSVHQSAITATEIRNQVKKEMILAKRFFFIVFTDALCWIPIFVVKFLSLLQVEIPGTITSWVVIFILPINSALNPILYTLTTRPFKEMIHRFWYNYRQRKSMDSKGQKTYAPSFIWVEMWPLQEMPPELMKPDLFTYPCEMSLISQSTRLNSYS
TEST NAME: RXFP1 cAMP assay (hRXFP1 HEK293 cAMP assay, HTRF)
Type: cell-based
CONDITION CONTEXT: HEK293 cells stably expressing human RXFP1, 30 min at room temperature, read-out: cAMP hRXFP1 HEK293 Assay EC50
MEASURE: EC50 (nM)
Write the answer as a number in nM, unit excluded.

-- ask I am curious: what EC50 value has been reported for COc1ccc(C2=NOC3COCC23)cc1C(=O)N[C@H]1[C@@H](C(=O)N[C@H](CF)C2(C)CC2)[C@H]2CC[C@@H]1/C2=C\C1CC1 (stereo partly drawn) [compound 771] ?
-- reply 3.8

-- ask Requested field: EC50. Item: COc1ccc(-c2cccnc2)cc1C(=O)N[C@H]1[C@@H](C(=O)Nc2ccc(F)c(C(F)(F)F)c2)[C@H]2CC[C@@H]1/C2=C\C(F)(F)F [Example 310]
-- reply 162

-- ask Give the measured EC50 of COc1ccc(-c2ccc(C(=O)O)cc2F)cc1C(=O)N[C@H]1[C@@H](C(=O)Nc2ccc(F)c(C(F)(F)F)c2)[C@H]2CC[C@@H]1C2=C(C)C [compound 84] .
-- reply 110

-- ask Could you tell me which EC50 is on file for COc1ccc(C2=NOC3CC(C)(CO)CC23)cc1C(=O)N[C@H]1[C@@H](C(=O)Nc2ccc(F)c(C(F)(F)F)c2)[C@H]2CC[C@@H]1/C2=C\C1CC1 (stereo partly drawn) [compound 736] ?
-- reply 2.4

-- ask Return reported EC50; argument: COCCN1CCCC1c1ccc(OC)c(C(=O)N[C@@H]2C3CCC(C3=CC3CC3)[C@@H]2C(=O)Nc2ccc(F)c(C(F)(F)F)c2)c1 (stereo partly drawn) [compound 689]
-- reply 684

-- ask For the compound COc1ccc(C2=NOC3CC(CO)CC23)cc1C(=O)N[C@H]1[C@@H](C(=O)Nc2ccc(F)c(C(F)(F)F)c2)[C@H]2CC[C@@H]1/C2=C\C(C)C (stereo partly drawn) [compound 454] , what EC50 is on record?
-- reply 1.9

###

ASSAYED TARGET: human RXFP1 (Homo sapiens)
Construct: expressed in transfected cells
TEST NAME: RXFP1 cAMP assay (hRXFP1 HEK293 cAMP assay, HTRF)
Assay type: cell-based
CONDITION CONTEXT: HEK293 cells stably expressing human RXFP1, 30 min at room temperature, read-out: cAMP hRXFP1 HEK293 Assay EC50
Exercise: state measured pEC50 for each of the molecules provided.
Remember, pEC50 is on a log scale: it is -log10 of the molar concentration.

-- ask Quick one: pEC50 of COc1ccc(-c2cc(C(=O)NS(=O)(=O)C3CC3)ccc2F)cc1C(=O)N[C@@H]1C2CCC(C2=C(C)C)[C@@H]1C(=O)Nc1ccc(F)c(C(F)(F)F)c1 (stereo partly drawn) [compound 157] ?
-- reply 6.21

-- ask What pEC50 value was documented for this molecule, COc1ccc(N2CCCC(CO)C2)cc1C(=O)N[C@@H]1C2CCC(/C2=C/C2CC2)[C@@H]1C(=O)Nc1ccc(F)c(C(F)(F)F)c1 (single isomer, unassigned) [compound 705] ?
-- reply 5.89

-- ask Param item = COc1ccc(C2=NOC3CC(C(N)=O)CC23)cc1C(=O)N[C@H]1[C@@H](C(=O)NCC(C)(C)C)[C@H]2CC[C@@H]1/C2=C\C1CC1 (stereo partly drawn) [compound 516] ; retrieve measured pEC50.
-- reply 7.75
